# System: EKO-35-Pore acrBD408A (functionally inactive AcrB variant)
# measurementNotes: Checkerboard synergy (FICI), porinated strain
# Assay type: cell-based, Escherichia coli
# particulars: EKO-35 acrBD408A Pore; antibiotic alone (PAβN checkerboard)
# Description: Synergy measurement using checkerboard analysis was performed in 96-well microtiter plates using the microdilution broth method, according to CLSI guidelines (Patel J. B., 2015). The cell inocula were prepared using the colony resuspension method. The minimum inhibitory concentrations (MICs) were defined as the lowest concentration that provided no growth, as determined by measurement of the OD600nm using a Synergy H1 microplate reader (BioTek). […]
Assignment: determine reported MICb Alone for the given compounds.
Field note: include the unit after the figure.

// solved cases for MICb Alone follow
Qu. Read off the recorded MICb Alone for Cc1onc(-c2ccccc2)c1C(=O)N[C@@H]1C(=O)N2[C@@H]1SC(C)(C)[C@@H]2C(=O)O
Ans. 0.25 µg/mL

Qu. Read off the recorded MICb Alone for CC(=O)NC[C@H]1CN(c2ccc(N3CCOCC3)c(F)c2)C(=O)O1
Ans. 8 µg/mL

Qu. Read off the recorded MICb Alone for CO[C@@H]1[C@@H](OC(N)=O)[C@@H](O)[C@H](Oc2ccc3c(O)c(NC(=O)c4ccc(O)c(CC=C(C)C)c4)c(=O)oc3c2C)OC1(C)C
Ans. 1 µg/mL

Qu. Read off the recorded MICb Alone for CC(=O)O[C@H]1C[C@@]2(C)[C@@H](C[C@@H](O)[C@H]3[C@@]4(C)CC[C@@H](O)[C@@H](C)[C@@H]4CC[C@@]32C)/C1=C(\CCC=C(C)C)C(=O)O
Ans. 1 µg/mL

***
Qu. Read off the recorded MICb Alone for CC[C@H]1OC(=O)[C@H](C)[C@@H](O[C@H]2C[C@@](C)(OC)[C@@H](O)[C@H](C)O2)[C@H](C)[C@@H](O[C@@H]2O[C@H](C)C[C@H](N(C)C)[C@H]2O)[C@](C)(O)C[C@@H](C)C(=O)[C@H](C)[C@@H](O)[C@]1(C)O
Ans. 0.13 µg/mL
